# Test system: Staphylococcus epidermidis
# Method summary: standard microtiter assay, minimum inhibitory concentration
# Assay type: cell-based
# Experimental setup: Test Organism 13, strain of Staphylococcus epidermidis
Rule: condition met for minimum inhibitory concentration of antibiotic, Test Organism 13 not less than 100 µg/mL, condition not met for anything less.

Solved cases (5 shown):
1. CNC1C(=O)NC2C(=O)NC(C(=O)NC3C(=O)NC4C(=O)NC(C(=O)NC(C(=O)O)c5cc(O)cc(O)c5-c5cc4ccc5O)C(O)c4cc(Cl)c(c(Cl)c4)Oc4cc3cc(c4O)Oc3ccc(cc3Cl)C2O)c2cc(cc(O)c2Cl)Oc2cc1ccc2O (centres unmarked) [Compound 2a, Ardacin aglycone, reference compound] ... condition met
2. CNC1C(=O)NC2C(=O)NC(C(=O)NC3C(=O)NC4C(=O)NC(C(=O)NC(C(=O)O)c5cc(O)cc(OC6OC(CO)C(O)C(O)C6O)c5-c5cc4ccc5O)C(O)c4ccc(c(Cl)c4)Oc4cc3cc(c4OC3OC(C(=O)O)C(O)C(O)C3NC(=O)CCCCCCCCC(C)C)Oc3ccc(cc3)C2O)c2cc(cc(O)c2Cl)Oc2cc1ccc2O (centres unmarked) [Compound 2p, AAJ-271 C1, reference compound] ... condition met
3. CNC1C(=O)NC2C(=O)NC(C(=O)NC3C(=O)NC4C(=O)NC(C(=O)NC(C(N)=O)c5cc(O)cc(O)c5-c5cc4ccc5O)C(O)c4cc(Cl)c(c(Cl)c4)Oc4cc3cc(c4O)Oc3ccc(cc3Cl)C2O)c2cc(cc(O)c2Cl)Oc2cc1ccc2O (centres unmarked) [Compound 2c, Ardacin aglycone amide] ... condition met
4. CNC1C(=O)NC2C(=O)NC(C(=O)NC3C(=O)NC4C(=O)NC(C(=O)NC(C(=O)O)c5cc(O)cc(OC6OC(CO)C(O)C(O)C6O)c5-c5cc4ccc5O)C(O)c4cc(Cl)c(c(Cl)c4)Oc4cc3cc(c4O)Oc3ccc(cc3Cl)C2O)c2cc(cc(O)c2Cl)Oc2cc1ccc2O (centres unmarked) [Compound 2b, Ardacin mannosylaglycone, reference compound] ... condition met
5. CN[C@H](CC(C)C)C(=O)N[C@H]1C(=O)N[C@@H](CC(N)=O)C(=O)N[C@H]2C(=O)N[C@H]3C(=O)N[C@H](C(=O)N[C@H](C(=O)O)c4cc(O)cc(O)c4-c4cc3ccc4O)[C@H](O)c3ccc(c(Cl)c3)Oc3cc2cc(c3O[C@@H]2O[C@H](CO)[C@@H](O)[C@H](O)[C@H]2O[C@H]2C[C@](C)(N)[C@H](O)[C@H](C)O2)Oc2ccc(cc2Cl)[C@H]1O [Vancomycin, reference compound] ... condition met

Does the reported minimum inhibitory concentration of antibiotic, Test Organism 13 for CNC1C(=O)NC2C(=O)NC(C(=O)NC3C(=O)NC4C(=O)NC(C(=O)NC(C(=O)NCCN)c5cc(O)cc(O)c5-c5cc4ccc5O)C(O)c4cc(Cl)c(c(Cl)c4)Oc4cc3cc(c4O)Oc3ccc(cc3Cl)C2O)c2cc(cc(O)c2Cl)Oc2cc1ccc2O (centres unmarked) [Compound 2e, Ardacin aglycone-(2-aminoethyl amide)] fall at or above the 100 µg/mL mark?
condition not met

Can you handle CNC1C(=O)NC2C(=O)NC(C(=O)NC3C(=O)NC4C(=O)NC(C(=O)NC(C(=O)NCCN(C)C)c5cc(O)cc(O)c5-c5cc4ccc5O)C(O)c4cc(Cl)c(c(Cl)c4)Oc4cc3cc(c4O)Oc3ccc(cc3Cl)C2O)c2cc(cc(O)c2Cl)Oc2cc1ccc2O (centres unmarked) [Compound 2g] next?
condition not met
